Below is a list of entries, each paired with its recorded pEC50 value.
- System: Dengue 4 virus MY01-22713
- Test Name: High-content imaging cell-based flavivirus immunodetection (HCl-CFI) assay, Dengue 4
- Condition Description: Dengue virus, A549, 48 h, read-out: Dengue 4 virus MY01-22713 in A549 using HCl [Inhibitor/IC50] Qualified AC50, A549 cells, 48 h, viral E protein expression
pEC50: −log10 of the molar value.

Compound	System Under Test	pEC50
Cc1ccc(CN2CCc3c(sc(NC(=O)Cc4ccc(S(N)(=O)=O)cc4)c3C#N)C2)cc1	Dengue 4 virus MY01-22713	6.00 to 7.00

Ask | Which value of pEC50 has been reported for CS(=O)(=O)c1ccc(CC(=O)Nc2sc3c(c2C#N)CCN(Cc2ccc(F)c(F)c2)C3)cc1 in the records?
Reply | > 7.00

Ask | Record: CS(=O)(=O)n1ccc(CC(=O)Nc2sc3c(c2C#N)CN(Cc2cccc(F)c2)CC3)c1
Reply | 6.00 to 7.00

Ask | Now consider CC1(C)Cc2sc(NC(=O)Cc3ccc(S(N)(=O)=O)cc3)c(C#N)c2CN1CC1CC(F)(F)C1 and answer again.
Reply | > 7.00

Ask | Follow-up item: N#Cc1c(NC(=O)Cc2ccc(S(N)(=O)=O)cc2)sc2c1CCN(Cc1ccc(F)c(F)c1)C2
Reply | 6.00 to 7.00

Ask | Try this compound too: Cc1cc(C)cc(CN2CCc3c(sc(NC(=O)Cc4ccc(S(C)(=O)=O)cc4)c3C#N)C2)c1
Reply | 6.00 to 7.00

Ask | Similarly, CC1Cc2sc(NC(=O)Cc3ccc(S(C)(=O)=O)cc3)c(C#N)c2CN1Cc1cc(Cl)ccc1Cl (centres unmarked) ?
Reply | > 7.00

Ask | Now consider CCOc1cc(CC(=O)Nc2sc3c(c2C#N)CN(Cc2cccc(F)c2)CC3)ccc1S(C)(=O)=O .
Reply | > 7.00

* * *

- Tested on: Dengue 4 virus MY01-22713
- Test Name: High-content imaging cell-based flavivirus immunodetection (HCl-CFI) assay, Dengue 4
- Condition Description: Dengue virus, A549, 48 h, read-out: Dengue 4 virus MY01-22713 in A549 using HCl [Inhibitor/IC50] Qualified AC50, A549 cells, 48 h, viral E protein expression
EC50 listing for selected compounds.

Consider the worked cases shown below.
Compound	EC50
CC1Cc2sc(NC(=O)Cc3ccc(S(N)(=O)=O)cc3)c(C#N)c2CN1CC1CCCCC1 (centres unmarked) [Example 62]	< 0.1 µM
CC1Cc2sc(NC(=O)Cc3ccc(S(N)(=O)=O)cc3)c(C#N)c2CN1CC1CCC1 (centres unmarked) [Example 60]	0.1 to 1 µM
CN(C(=O)Cc1ccc(S(N)(=O)=O)cc1)c1sc2c(c1C#N)CN(CC1CCCCC1)C(C)(C)C2 [Example 75]	> 1 µM
COc1cc(S(N)(=O)=O)ccc1CC(=O)Nc1sc2c(c1C#N)CN(CC1CCCCC1)CC2 [Example 19]	< 0.1 µM

Ask | Fill in the blank: the reported EC50 of CNS(=O)(=O)c1ccc(CC(=O)Nc2sc3c(c2C#N)CN(Cc2cccc(F)c2)CC3)cc1 [Example 29] is ____.
Reply | < 0.1 µM

Ask | Same read-out for COc1cccc(CC(=O)Nc2sc3c(c2C#N)CN(Cc2cccc(F)c2)CC3)c1F [Example 40] ?
Reply | 0.1 to 1 µM

Ask | Repeat with CCC1Cc2sc(NC(=O)Cc3ccc(S(N)(=O)=O)cc3)c(C#N)c2CN1Cc1cccc(F)c1 (centres unmarked) [Example 87]
Reply | < 0.1 µM

Ask | Do the same for COc1cc(CC(=O)Nc2sc3c(c2C#N)CN(CC2CC(F)(F)C2)CC3)ccc1S(N)(=O)=O [Example 50] please
Reply | 0.1 to 1 µM
